# assayedTarget: recombinant human MMP-2 (Homo sapiens, UniProt P08253)
# Sequence (P08253 110-660): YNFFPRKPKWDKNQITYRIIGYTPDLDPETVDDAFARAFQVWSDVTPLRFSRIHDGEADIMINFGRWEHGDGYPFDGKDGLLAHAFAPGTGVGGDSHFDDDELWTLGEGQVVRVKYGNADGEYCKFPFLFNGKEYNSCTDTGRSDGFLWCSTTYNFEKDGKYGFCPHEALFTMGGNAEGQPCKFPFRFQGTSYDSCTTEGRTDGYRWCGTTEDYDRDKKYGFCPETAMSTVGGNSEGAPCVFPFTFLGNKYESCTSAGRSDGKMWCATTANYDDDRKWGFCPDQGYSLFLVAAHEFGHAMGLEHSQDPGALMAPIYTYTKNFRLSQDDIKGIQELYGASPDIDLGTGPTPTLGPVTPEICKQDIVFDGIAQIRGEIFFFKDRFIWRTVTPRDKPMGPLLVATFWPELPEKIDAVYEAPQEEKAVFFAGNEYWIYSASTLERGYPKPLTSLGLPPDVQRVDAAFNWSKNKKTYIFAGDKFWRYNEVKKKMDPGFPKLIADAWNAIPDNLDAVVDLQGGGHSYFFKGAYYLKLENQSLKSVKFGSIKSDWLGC
# assayNotes: In-vitro fluorescence assay of MMP-2 activity
pIC50: −log10 of the molar value.
The entries below come with measured pIC50 values attached.

- compound: "Cc1cc(COc2ccc(S(=O)(=O)N[C@@H]3CCN(C(=O)OC(C)(C)C)CC3C(=O)NO)cc2)c2ccccc2n1 (mixture of isomers) [Example 28]"
  pIC50: "< 4.78"
- compound: "Cc1cc(COc2ccc(S(=O)(=O)N(C)C3C4CCC(C4)C3C(=O)NO)cc2)c2ccccc2n1 (single isomer, unassigned) [Example 1b]"
  pIC50: "< 4.78"
- compound: "Cc1cc(COc2ccc(S(=O)(=O)N[C@@H]3CCCC[C@H]3C(=O)NO)cc2)c2ccccc2n1 (relative stereo) [Example 14]"
  pIC50: "< 4.78"

Turning now to a further compound:
Task: // fetch pIC50 for Cc1cc(COc2ccc(S(=O)(=O)N[C@H]3[C@@H](C(=O)NO)[C@@H]4C=C[C@H]3C4)cc2)c2ccccc2n1 (relative stereo) [Example 9] ; system: recombinant human MMP-2 (Homo sapiens, UniProt P08253)
Output: < 4.78

Source of measurements: patent US7595327B2
